Tested on: tubulin
Run description: Inhibition of tubulin polymerization
Assay type: biochemical
Protocol conditions: read-out: Tubulin Assembly IC50; tubulin at 10 μM
pIC50: −log10 of the molar value.
Could you please report measured pIC50 for the items listed next?

Measured pIC50 of COc1cc(/C=C\c2ccccc2B(O)O)cc(OC)c1OC : < 4.40

Measured pIC50 of COc1cc(C(=O)c2cnc(OC)c(B(O)O)c2)cc(OC)c1OC : < 4.40
